# System: 422866-222-R5-J1-PDC spheroids with HUVEC/MSC, viability
# assay info: Anticancer human tumor 422866-222-R5-J1-PDC patient-derived pancreatic adenocarcinoma cell line growth inhibition [GQUAD]
# reported conditions: curve of first compound; second compound 0.316 µM
pIC50: −log10 of the molar value.
measurement name: pIC50

Below, 3 compounds whose answers are already recorded.
compound: CCCS(=O)(=O)Nc1ccc(F)c(C(=O)c2c[nH]c3ncc(-c4ccc(Cl)cc4)cc23)c1F + Cc1[nH]c2ccc(F)cc2c1-c1nc2c3cccnc3c3ncccc3c2[nH]1
pIC50: 5.96
--
compound: C=CC(=O)N1CCN(c2nc(=O)n(-c3c(C)ccnc3C(C)C)c3nc(-c4c(O)cccc4F)c(F)cc23)C(C)C1 (stereo unspecified) + Cc1[nH]c2ccc(F)cc2c1-c1nc2c3cccnc3c3ncccc3c2[nH]1
pIC50: > 7.50
--
compound: COc1cc(C2c3cc4c(cc3C(OC3OC5COC(C)OC5C(O)C3O)C3COC(=O)C23)OCO4)cc(OC)c1O (stereo unspecified) + Cc1[nH]c2ccc(F)cc2c1-c1nc2c3cccnc3c3ncccc3c2[nH]1
pIC50: 5.69

Provide pIC50 values for the following items, in order.
1. Cc1cccc(N(C)C(=O)C2C(O)CCN2c2nc(C)cc(C(F)(F)F)c2C#N)c1 (stereo unspecified) + Cc1[nH]c2ccc(F)cc2c1-c1nc2c3cccnc3c3ncccc3c2[nH]1
2. CCCS(=O)(=O)Nc1ccc(F)c(C(=O)c2c[nH]c3ncc(-c4ccc(Cl)cc4)cc23)c1F + Cc1cnc(CNC(=O)c2c(=O)c3ccc(N4CCCN(C)CC4)nc3n3c2sc2ccccc23)cn1

1. < 5.00
2. < 5.00

Provide pIC50 values for the following items, in order.
1. Nc1ccn(C2OC(CO)C(O)C2(F)F)c(=O)n1 (stereo unspecified) + Cc1[nH]c2ccc(F)cc2c1-c1nc2c3cccnc3c3ncccc3c2[nH]1
2. CCCS(=O)(=O)Nc1ccc(F)c(C(=O)c2c[nH]c3ncc(-c4ccc(Cl)cc4)cc23)c1F + CN(C)c1ccc(Nc2c3ccc(NC(=O)CCN4CCCC4)cc3nc3cc(NC(=O)CCN4CCCC4)ccc23)cc1
3. Cn1ncnc1[C@H]1c2n[nH]c(=O)c3cc(F)cc(c23)N[C@@H]1c1ccc(F)cc1 + Cc1[nH]c2ccc(F)cc2c1-c1nc2c3cccnc3c3ncccc3c2[nH]1
4. CC1COCCN1c1cc(C2(S(C)(=N)=O)CC2)nc(-c2ccnc3[nH]ccc23)n1 (stereo unspecified) + Cc1cnc(CNC(=O)c2c(=O)c3ccc(N4CCCN(C)CC4)nc3n3c2sc2ccccc23)cn1
5. CC1COCCN1c1cc(C2(S(C)(=N)=O)CC2)nc(-c2ccnc3[nH]ccc23)n1 (stereo unspecified) + CN(C)c1ccc(Nc2c3ccc(NC(=O)CCN4CCCC4)cc3nc3cc(NC(=O)CCN4CCCC4)ccc23)cc1
6. Cc1[nH]c2ccccc2c1CCNCc1ccc(/C=C/C(=O)NO)cc1 + CN(C)c1ccc(Nc2c3ccc(NC(=O)CCN4CCCC4)cc3nc3cc(NC(=O)CCN4CCCC4)ccc23)cc1
7. CCc1c2c(nc3ccc(O)cc13)-c1cc3c(c(=O)n1C2)COC(=O)[C@]3(O)CC + Cc1cnc(CNC(=O)c2c(=O)c3ccc(N4CCCN(C)CC4)nc3n3c2sc2ccccc23)cn1
8. COc1ccc([C@@H](O)c2cc(-c3ncnc4cc(N5CCOCC5)ccc34)c(F)cc2Cl)nn1 + Cc1cnc(CNC(=O)c2c(=O)c3ccc(N4CCCN(C)CC4)nc3n3c2sc2ccccc23)cn1

1: 5.92; 2: < 5.00; 3: < 6.50; 4: < 5.00; 5: 5.11; 6: < 6.50; 7: 7.59; 8: 5.44

Provide pIC50 values for the following items, in order.
1. O=C(c1cc(Cc2n[nH]c(=O)c3ccccc23)ccc1F)N1CCN(C(=O)C2CC2)CC1 + CN(C)c1ccc(Nc2c3ccc(NC(=O)CCN4CCCC4)cc3nc3cc(NC(=O)CCN4CCCC4)ccc23)cc1
2. CC[C@@]1(O)C(=O)OCc2c1cc1n(c2=O)Cc2cc3c(CN(C)C)c(O)ccc3nc2-1 + Cc1cnc(CNC(=O)c2c(=O)c3ccc(N4CCCN(C)CC4)nc3n3c2sc2ccccc23)cn1
3. COc1ncnc(C2CC2)c1-c1ncc2cnn(Cc3ccc(-c4nc(C(F)(F)F)cn4C(C)C)cc3)c2n1 + Cc1[nH]c2ccc(F)cc2c1-c1nc2c3cccnc3c3ncccc3c2[nH]1
4. O=C(c1cc(Cc2n[nH]c(=O)c3ccccc23)ccc1F)N1CCN(C(=O)C2CC2)CC1 + Cc1cnc(CNC(=O)c2c(=O)c3ccc(N4CCCN(C)CC4)nc3n3c2sc2ccccc23)cn1
5. CC(=O)O[C@H]1C(=O)[C@@]2(C)[C@H]([C@H](OC(=O)c3ccccc3)[C@]3(O)C[C@H](OC(=O)[C@H](O)[C@@H](NC(=O)c4ccccc4)c4ccccc4)C(C)=C1C3(C)C)[C@]1(OC(C)=O)CO[C@@H]1C[C@@H]2O + CN(C)c1ccc(Nc2c3ccc(NC(=O)CCN4CCCC4)cc3nc3cc(NC(=O)CCN4CCCC4)ccc23)cc1
6. CC(C)(O)C1CCC(Nc2ccc3ncc(-c4cccc(C(F)(F)F)c4)n3n2)CC1 (stereo unspecified) + Cc1[nH]c2ccc(F)cc2c1-c1nc2c3cccnc3c3ncccc3c2[nH]1
7. CC1COCCN1c1cc(C2(O)CC3CCC(C2)O3)c2cnn(-c3ccn[nH]3)c2n1 (stereo unspecified) + Cc1cnc(CNC(=O)c2c(=O)c3ccc(N4CCCN(C)CC4)nc3n3c2sc2ccccc23)cn1

["< 5.00", "< 6.50", "< 5.00", "< 5.00", "< 5.00", 5.95, "< 5.00"]

Suppose we examine the compound CC[C@@]1(O)C(=O)OCc2c1cc1n(c2=O)Cc2cc3c(CN(C)C)c(O)ccc3nc2-1 + Cc1[nH]c2ccc(F)cc2c1-c1nc2c3cccnc3c3ncccc3c2[nH]1 ; what pIC50 value has been reported?
6.89

* * *

# Test system: 422866-222-R5-J1-PDC spheroids with HUVEC/MSC, viability
# assay info: Anticancer human tumor 422866-222-R5-J1-PDC cell line growth inhibition [GQUAD];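 note: spheroids exposed to compounds for seven days before reading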;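 for viability, T/C: percent viability relative to DMSO vehicle control taken as 100%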
# reported conditions: second compound 3.16 µM; first compound 1 µM; stronger effect = lower value
Can you tell me viability, T/C for the items I'm about to list?
Answers are plain numbers, in %.

compound: CC(=O)O[C@H]1C(=O)[C@@]2(C)[C@H]([C@H](OC(=O)c3ccccc3)[C@]3(O)C[C@H](OC(=O)[C@H](O)[C@@H](NC(=O)c4ccccc4)c4ccccc4)C(C)=C1C3(C)C)[C@]1(OC(C)=O)CO[C@@H]1C[C@@H]2O + CN(C)c1ccc(Nc2c3ccc(NC(=O)CCN4CCCC4)cc3nc3cc(NC(=O)CCN4CCCC4)ccc23)cc1
measured result: 65.2

Checklist item: viability, T/C tested on 422866-222-R5-J1-PDC spheroids with HUVEC/MSC, viability, entry COc1ncnc(C2CC2)c1-c1ncc2cnn(Cc3ccc(-c4nc(C(F)(F)F)cn4C(C)C)cc3)c2n1 + Cc1[nH]c2ccc(F)cc2c1-c1nc2c3cccnc3c3ncccc3c2[nH]1 , value?
77.5

* * *

# System: 422866-222-R5-J1-PDC spheroids with HUVEC/MSC, viability
# assay info: Anticancer human tumor 422866-222-R5-J1-PDC cell line growth inhibition [GQUAD];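 note: spheroids exposed to compounds for seven days before reading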;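 for viability, T/C: percent viability relative to DMSO vehicle control taken as 100%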
# reported conditions: second compound 0.1 µM; first compound 1 µM; stronger effect = lower value
measurement name: viability, T/C (%)
Give bare numbers, in %.

Below, 2 compounds whose answers are already recorded.
compound: CC1COCCN1c1cc(C2(O)CC3CCC(C2)O3)c2cnn(-c3ccn[nH]3)c2n1 (stereo not drawn) + Cc1cnc(CNC(=O)c2c(=O)c3ccc(N4CCCN(C)CC4)nc3n3c2sc2ccccc23)cn1
quantity unit: %
viability, T/C: 49.2

compound: C=CCn1c(=O)c2cnc(Nc3ccc(N4CCN(C)CC4)cc3)nc2n1-c1cccc(C(C)(C)O)n1 + CN(C)c1ccc(Nc2c3ccc(NC(=O)CCN4CCCC4)cc3nc3cc(NC(=O)CCN4CCCC4)ccc23)cc1
quantity unit: %
viability, T/C: 47.3

Suppose we examine the compound C=CCn1c(=O)c2cnc(Nc3ccc(N4CCN(C)CC4)cc3)nc2n1-c1cccc(C(C)(C)O)n1 + Cc1cnc(CNC(=O)c2c(=O)c3ccc(N4CCCN(C)CC4)nc3n3c2sc2ccccc23)cn1 ; what viability, T/C value has been reported?
45.5

* * *

# Test system: 422866-222-R5-J1-PDC spheroids with HUVEC/MSC, viability
# assay info: Anticancer human tumor 422866-222-R5-J1-PDC cell line growth inhibition [GQUAD];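 note: spheroids exposed to compounds for seven days before reading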;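 for viability, T/C: percent viability relative to DMSO vehicle control taken as 100%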
# reported conditions: second compound 0.1 µM; first compound 0.316 µM; stronger effect = lower value
measurement name: viability, T/C (%)
Numbers only, in %.

molecule: C=CCn1c(=O)c2cnc(Nc3ccc(N4CCN(C)CC4)cc3)nc2n1-c1cccc(C(C)(C)O)n1 + Cc1[nH]c2ccc(F)cc2c1-c1nc2c3cccnc3c3ncccc3c2[nH]1
test system: 422866-222-R5-J1-PDC spheroids with HUVEC/MSC, viability
viability, T/C (%): 127
--
molecule: C=CC(=O)N1CCN(c2nc(=O)n(-c3c(C)ccnc3C(C)C)c3nc(-c4c(O)cccc4F)c(F)cc23)C(C)C1 (stereo not drawn) + Cc1cnc(CNC(=O)c2c(=O)c3ccc(N4CCCN(C)CC4)nc3n3c2sc2ccccc23)cn1
test system: 422866-222-R5-J1-PDC spheroids with HUVEC/MSC, viability
viability, T/C (%): 26.7

Please examine the following record next.
Suppose we examine the molecule COc1cccc2c1C(=O)c1c(O)c3c(c(O)c1C2=O)CC(O)(C(=O)CO)CC3OC1CC(N)C(O)C(C)O1 (stereo not drawn) + Cc1cnc(CNC(=O)c2c(=O)c3ccc(N4CCCN(C)CC4)nc3n3c2sc2ccccc23)cn1 ; what viability, T/C value has been reported?
78.9

Sourced from PubChem BioAssay AID2060511
